Target: T1, full-length trimeric SARS-CoV-2 Spike protein (Spike-H6) (SARS-CoV-2, N-glycosylated (22 N-glycosylation sites))
T1 construct: also called trimeric Spike; full-length Spike-H6
Experiment: ELISA screen
metric: Mean normalized OD (OD)
Give the value in OD but do not write OD after it.

Request the reported Mean normalized OD associated with Lgalslb CRD-mouse IgG2a-Fc fusion protein (Fc fusion) YFRGHIKGGMRPGKKVLVMGIVDHNPKSFAISLTCGDSEDPPADVAIELKVVFTNQQVFRNSCISGESDEENLAFPYFPFVPDQPFRMEIFCQQPCFRVLVDGHHLFDFYHRIQTLSAIDSIKISGDLQIGGGSGGGSGGGS
0.026

Suppose we examine the binder Colec12 CRD-mouse IgG2a-Fc fusion protein (Fc fusion) FTDKCYYFSLEKEIFEDAKLFCEDKSSHLVFINSREEQQWIKKHTVGRESHWIGLTDSEQESEWKWLDGSPVDYKNWKAGQPDNWGSGHGPGEDCAGLIYAGQWNDFQCDEINNFICEGGGSGGGSGGGS ; what Mean normalized OD value has been reported?
0.04

I am curious: what Mean normalized OD value has been reported for Ly75_1 CRD-mouse IgG2a-Fc fusion protein (Fc fusion) QIGSCYQFNNQEILSWKEAYVSCQNQGADLLSIHSAAELAYITGKEDIARLVWLGLNQLYSARGWEWSDFRPLKFLNWDPGTPVAPVIGGSSCARMDTESGLWQSVSCESQQPYVCKGGGSGGGSGGGS ?
-0.434

GET /values?readout=Mean normalized OD&item= Cd207 CRD-mouse IgG2a-Fc fusion protein (Fc fusion) FSGNFYYFSRTPKTWYSAEQFCISRKAHLTSVSSESEQKFLYKAADGIPHWIGLTKAGSEGDWYWVDQTSFNKEQSRRFWIPGEPNNAGNNEHCANIRVSALKCWNDGPCDNTFLFICKGGGSGGGSGGGS
0.028

Which Mean normalized OD is reported for this binder? Lgals9_2 CRD-mouse IgG2a-Fc fusion protein (Fc fusion) FYTPIPNGLYPSKSIMISGNVLPDATRFHINLRCGGDIAFHLNPRFNENAVVRNTQINNSWGQEERSLLGRMPFSRGQSFSVWIICEGHCFKVAVNGQHMCEYYHRLKNLQDINTLEVAGDIQLTHVQTGGGSGGGSGGGS
0.056

# lookup: Mean normalized OD of Clec10a CRD-mouse IgG2a-Fc fusion protein (Fc fusion) CCPLHWTEHEGSCYWFSESEKSWPEADKYCRLENSHLVVVNSLEEQNFLQNRLANVVSWIGLTDQNGPWRWVDGTDFEKGFKNWAPLQPDNWFGHGLGGGEDCAHITTGGPWNDDVCQRTFRWICEMGGGSGGGSGGGS
0.069

// Mean normalized OD lookup, key: Lgals8_2 CRD-mouse IgG2a-Fc fusion protein (Fc fusion) FEARLNASMGPGRTVVIKGEVNTNARSFNVDLVAGKTRDIALHLNPRLNVKAFVRNSFLQDAWGEEERNITCFPFSSGMYFEMIIYCDVREFKVAINGVHSLEYKHRFKDLSSIDTLSVDGDIRLLDVRSWGGGSGGGSGGGS
0.037
